Exercise: for every item that follows, state its recorded IC50.
# System: Toxoplasma gondii tachyzoites (strain RH, type I)
# test-summary: Half maximal inhibitory concentration (IC50) on T. gondii (enzyme immunoassay)
# Assay type: cell-based
# setup-conditions: Toxoplasma gondii; T. gondii RH in Vero cells, 72 h
Give bare numbers, in µM.

The cases that follow already have their IC50 on record.
{"molecule": "C=C(C)[C@@H]1CC[C@]2(C(=O)O)CC[C@]3(C)[C@H](CC[C@@H]4[C@@]5(C)CC[C@H](O)C(C)(C)[C@@H]5CC[C@]43C)[C@@H]12", "IC50, µM": 8.3}
{"molecule": "CCc1nc(N)nc(N)c1-c1ccc(Cl)cc1 [Pyrimethamine (10), pyrimethamine, reference compound]", "IC50, µM": 0.7}
{"molecule": "C=C(C)[C@@H]1CC[C@]2(C=O)CC[C@]3(C)[C@H](CC[C@@H]4[C@@]5(C)CC[C@H](O)C(C)(C)[C@@H]5CC[C@]43C)[C@@H]12", "IC50, µM": 5.1}
{"molecule": "C=C(C)[C@@H]1CC[C@]2(CO)CC[C@]3(C)[C@H](CC[C@@H]4[C@@]5(C)CCC(=O)C(C)(C)[C@@H]5CC[C@]43C)[C@@H]12", "IC50, µM": 2.7}
{"molecule": "C=C(C)[C@@H]1CC[C@]2(CO)CC[C@]3(C)[C@H](CC[C@@H]4[C@@]5(C)CC[C@H](O)C(C)(C)[C@@H]5CC[C@]43C)[C@@H]12", "IC50, µM": 13.3}

Need IC50 for each of these molecules.
1. C=C(C)C1CCC2(C(=O)OC)CCC3(C)C(CCC4C5(C)CCC(=O)C(C)(C)C5CCC43C)C12 (centres unmarked)
2. C=C(C)[C@@H]1CC[C@]2(C)CC[C@]3(C)[C@H](CC[C@@H]4[C@@]5(C)CC[C@H](O)C(C)(C)[C@@H]5CC[C@]43C)[C@@H]12
3. C=C(C)C1CCC2(C(=O)O)CCC3(C)C(CCC4C5(C)CCC(=O)C(C)(C)C5CCC43C)C12 (centres unmarked)

1: 3.1; 2: 13.8; 3: 4.3
